Experiment: Solubility of test compounds in assay buffer
Type: physicochemical
Conditions: Tris assay buffer, pH 7.5, aqueous buffer; 50 mM Tris, 50 mM KCl, 5 mM TCEP, pH 7.50

[
  {
    "compound": "C[S+]([O-])c1ccc(-c2cc(C(=O)O)nn2-c2ccc(S(N)(=O)=O)cc2)cc1 (stereo not shown) [compound 108]",
    "solubility": "< 1000 µM"
  },
  {
    "compound": "CSc1ccc(/C=C2/C(C)=C(CC(=O)NC(CC[S+](C)[O-])C(=O)O)c3cc(F)ccc32)cc1 (stereo not shown) [compound 107]",
    "solubility": "< 1000 µM"
  },
  {
    "compound": "C[S+]([O-])c1ccc(CC(=O)O)cc1 (stereo not shown) [compound 106]",
    "solubility": "< 1000 µM"
  },
  {
    "compound": "C[S+]([O-])c1ccc(-c2cc(C(F)(F)F)nn2-c2ccc(S(N)(=O)=O)cc2)cc1 (stereo not shown) [compound 105]",
    "solubility": "< 1000 µM"
  }
]
